- System under test: T1, full length human TPO-R (human, UniProt P40238 26-635)
- T1 sequence (looked up): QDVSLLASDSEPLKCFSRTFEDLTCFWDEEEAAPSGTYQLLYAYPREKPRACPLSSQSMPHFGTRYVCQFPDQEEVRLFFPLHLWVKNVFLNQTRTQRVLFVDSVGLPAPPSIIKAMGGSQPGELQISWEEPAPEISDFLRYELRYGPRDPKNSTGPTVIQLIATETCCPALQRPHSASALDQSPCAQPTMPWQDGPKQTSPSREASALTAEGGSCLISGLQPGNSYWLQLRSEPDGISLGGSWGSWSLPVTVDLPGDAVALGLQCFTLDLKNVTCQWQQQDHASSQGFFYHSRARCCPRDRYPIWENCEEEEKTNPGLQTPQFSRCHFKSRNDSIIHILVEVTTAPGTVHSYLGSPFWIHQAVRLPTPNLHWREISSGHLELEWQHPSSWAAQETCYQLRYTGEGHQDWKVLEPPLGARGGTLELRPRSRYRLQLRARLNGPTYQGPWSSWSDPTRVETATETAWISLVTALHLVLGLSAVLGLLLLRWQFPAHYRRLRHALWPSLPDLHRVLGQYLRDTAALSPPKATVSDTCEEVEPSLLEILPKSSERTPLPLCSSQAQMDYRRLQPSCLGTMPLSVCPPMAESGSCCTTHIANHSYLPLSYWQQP
- Assay text: cell-based or functional assay
Where no end group is shown, it is not given here.
Recorded EC50 cell proliferation, one value per entry.

Illustrative cases are given below, each with its answer.
Quick one: EC50 cell proliferation of CADGPTLREWISF (also: further groups not given here, structure printed only as a drawing) [[drawing CHEM-US-00031] (SEQ ID NO:186)(SEQ ID NO:186)] ?
≤ 0.5 µM

For TLREWISFC (also: further groups not given here) [[drawing CHEM-US-00043] (SEQ ID NO:192)(SEQ ID NO:192)] , what is its reported EC50 cell proliferation?
~200 µM

Quick one: EC50 cell proliferation for CIEGPTLRQWLAARA (also: further groups not given here, also called [drawing CHEM-US-00062]) [[drawing CHEM-US-00030] (SEQ ID NO:185)(SEQ ID NO:185)] ?
≤ 0.5 µM

Shifting focus to the binder that follows.
Report EC50 cell proliferation for TLREWISFC (also: further groups not given here) [[drawing CHEM-US-00042] (SEQ ID NO:192)(SEQ ID NO:192)] please.
~200 µM

Reference source for all entries: patent US7091311
